All figures here come from patent US20220211692A1.

- MEASUREMENT_TARGET: F508delCFTR (Homo sapiens, UniProt P13569, DEL508-508)
- Construct: expressed in transfected cells; host or cells: CFBE41o- human lung derived epithelial cell line, doxycycline-induced expression
- Sequence (P13569 with tags, fused parts or gaps DEL508-508): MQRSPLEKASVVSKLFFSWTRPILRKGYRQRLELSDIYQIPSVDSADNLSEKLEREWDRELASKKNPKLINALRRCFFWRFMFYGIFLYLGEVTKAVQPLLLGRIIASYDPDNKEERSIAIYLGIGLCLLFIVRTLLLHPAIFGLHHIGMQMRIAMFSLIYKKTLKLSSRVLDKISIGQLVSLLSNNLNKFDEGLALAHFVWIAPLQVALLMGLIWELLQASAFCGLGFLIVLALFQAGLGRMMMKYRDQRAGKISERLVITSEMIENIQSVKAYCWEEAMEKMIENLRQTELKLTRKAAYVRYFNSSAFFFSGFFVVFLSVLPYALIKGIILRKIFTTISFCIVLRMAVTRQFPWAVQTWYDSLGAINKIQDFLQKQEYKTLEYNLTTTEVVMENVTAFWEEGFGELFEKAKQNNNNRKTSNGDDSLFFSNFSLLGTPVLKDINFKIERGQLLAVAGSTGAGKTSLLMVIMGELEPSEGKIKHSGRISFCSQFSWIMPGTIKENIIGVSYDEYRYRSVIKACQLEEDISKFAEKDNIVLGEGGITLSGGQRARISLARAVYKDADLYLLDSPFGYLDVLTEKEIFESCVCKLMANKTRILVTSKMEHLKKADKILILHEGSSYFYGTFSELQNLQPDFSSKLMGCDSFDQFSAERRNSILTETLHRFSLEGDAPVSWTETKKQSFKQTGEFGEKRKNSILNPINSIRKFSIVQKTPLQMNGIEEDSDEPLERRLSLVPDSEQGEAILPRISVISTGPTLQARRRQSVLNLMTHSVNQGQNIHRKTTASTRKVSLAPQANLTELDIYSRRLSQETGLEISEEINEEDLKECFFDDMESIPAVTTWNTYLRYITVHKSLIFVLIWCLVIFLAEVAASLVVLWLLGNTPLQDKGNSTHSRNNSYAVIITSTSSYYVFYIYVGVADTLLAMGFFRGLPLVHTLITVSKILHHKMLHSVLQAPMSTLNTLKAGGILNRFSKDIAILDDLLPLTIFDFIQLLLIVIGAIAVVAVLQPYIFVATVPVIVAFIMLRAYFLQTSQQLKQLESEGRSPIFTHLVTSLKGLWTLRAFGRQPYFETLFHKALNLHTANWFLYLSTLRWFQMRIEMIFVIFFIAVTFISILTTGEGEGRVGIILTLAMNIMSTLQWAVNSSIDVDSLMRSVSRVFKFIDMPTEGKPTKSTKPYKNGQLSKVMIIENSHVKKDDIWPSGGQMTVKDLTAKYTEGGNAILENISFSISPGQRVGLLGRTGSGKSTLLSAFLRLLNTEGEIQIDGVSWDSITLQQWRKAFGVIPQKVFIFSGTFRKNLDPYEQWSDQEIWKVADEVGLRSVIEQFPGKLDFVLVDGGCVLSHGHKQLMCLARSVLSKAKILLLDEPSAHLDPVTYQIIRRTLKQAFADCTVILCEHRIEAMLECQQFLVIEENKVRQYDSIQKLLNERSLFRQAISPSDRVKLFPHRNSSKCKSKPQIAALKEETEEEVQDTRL
- TEST_NAME: Cell Surface Expression-Horse Radish Peroxidase (CSE-HRP) assay in CFBE41o-F508delCFTR-HRP cells
- Type: cell-based
- CONDITION_DETAILS: with co-corrector 2 μM; normalized to on-plate positive control
QUANTITY_MEASURED: Maximum % activity (with co-corrector) (%)

                                   compound  recorded_number
0  CCOc1ccc(CC)cc1[C@]1(C(=O)NS(=O)(=O)c2cccc3nc(C)ccc23)CCCO1              711
1  CCc1ccc(OCC(C)OC)c([C@@]2(C(=O)NS(=O)(=O)c3cccc4nc(C)ccc34)CCCO2)c1 (stereo in doubt)              871
2  COc1ccc(C)cc1[C@]1(C(=O)NS(=O)(=O)c2cccc3nc(C)ccc23)CC2(CC2)CO1              444
3  CCc1ccc(OC[C@H](C)OC)c([C@]2(C(=O)NS(=O)(=O)c3cccc4nc(C)ccc34)CCCO2)c1              399
